From: ChEMBL document CHEMBL3885861

Species: Rattus norvegicus
Assay: Open TG-GATES - Regimen: Daily Repeat
Assay type: toxicity, organism-based, Sprague-Dawley
Design: regimen Daily Repeat, gender Male, age 6 weeks
Settings: in vivo, po, 0 mg/kg, […], tissue Blood, route gavage, dose level Control, time 28 day
QUANTITY_KIND: Plat (x10_4/uL)
Expressed in x10_4/uL, but write only the number.

These recorded examples may help you get a feel for the data.
| COMPOUND | MEASUREMENT_UNITS | Plat |
| --- | --- | --- |
| Brc1ccccc1 | x10_4/uL | 103.9 |
| Cc1nnc2n1-c1ccc(Cl)cc1C(c1ccccc1Cl)=NC2 | x10_4/uL | 106.8 |
| COC(=O)C1=C(C)NC(C)=C(C(=O)OC)C1c1ccccc1[N+](=O)[O-] | x10_4/uL | 122.9 |
| CN1C(=O)CCS(=O)(=O)C1c1ccc(Cl)cc1 (stereo not drawn) | x10_4/uL | 99.4 |
| CNC(=C[N+](=O)[O-])NCCSCc1ccc(CN(C)C)o1 | x10_4/uL | 106.3 |

Consider the compound `CN/C(=N/CCSCc1nc[nH]c1C)NC#N` . State its measured Plat.
99.1

Consider the compound `CCOc1ccc(NC(C)=O)cc1` . State its measured Plat.
114.1

Consider the compound NC1=NC(=O)C(c2ccccc2)O1 (stereo not drawn) . State its measured Plat.
108.5

Consider the compound `CC(C)NNC(=O)c1ccncc1` . State its measured Plat.
108.3

Consider the compound CN(C)CCC(c1ccc(Cl)cc1)c1ccccn1 (stereo not drawn) . State its measured Plat.
115.9

Consider the compound `Nc1c2c(nc3ccccc13)CCCC2` . State its measured Plat.
115

Consider the compound `O=C(OC[C@H]1O[C@@H](OC(=O)c2cc(O)c(O)c(OC(=O)c3cc(O)c(O)c(O)c3)c2)[C@H](OC(=O)c2cc(O)c(O)c(OC(=O)c3cc(O)c(O)c(O)c3)c2)[C@@H](OC(=O)c2cc(O)c(O)c(OC(=O)c3cc(O)c(O)c(O)c3)c2)[C@@H]1OC(=O)c1cc(O)c(O)c(OC(=O)c2cc(O)c(O)c(O)c2)c1)c1cc(O)c(O)c(OC(=O)c2cc(O)c(O)c(O)c2)c1` . State its measured Plat.
112.4

Consider the compound `CCCc1cc(=O)[nH]c(=S)[nH]1` . State its measured Plat.
105.4

----------
Examples of molecules with documented Lym follow.
Species: Rattus norvegicus
Experiment: Open TG-GATES - Regimen: Single
Type: toxicity, organism-based, Sprague-Dawley
Design: regimen Single, gender Male, age 6 weeks
Details: in vivo, po, 1000 mg/kg, 9 h, tissue Blood, route gavage, dose level High
Expressed in %, but write only the number.

| MOLECULE | TEST_VALUE |
| --- | --- |
| CN/C(=N/CCSCc1nc[nH]c1C)NC#N | 80 |
| Cc1nnc2n1-c1ccc(Cl)cc1C(c1ccccc1Cl)=NC2 | 74.2 |

Consider the molecule `CNC(=C[N+](=O)[O-])NCCSCc1ccc(CN(C)C)o1` . State its measured Lym.
68.6

----------
Species: Rattus norvegicus
Experiment: Open TG-GATES - Regimen: Single
Assay type: toxicity, organism-based, Sprague-Dawley
Parameters: regimen Single, gender Male, age 6 weeks
Conditions: in vivo, po, 300 mg/kg, 24 h, tissue Plasma, route gavage, dose level Middle
Examples of compounds with documented ALT follow.
Expressed in IU/L, but write only the number.

These recorded examples may help you get a feel for the data.
| MOLECULE | MEASUREMENT_UNITS | ALT |
| --- | --- | --- |
| Cc1nnc2n1-c1ccc(Cl)cc1C(c1ccccc1Cl)=NC2 | IU/L | 44.4 |
| CN/C(=N/CCSCc1nc[nH]c1C)NC#N | IU/L | 35.8 |
| CNC(=C[N+](=O)[O-])NCCSCc1ccc(CN(C)C)o1 | IU/L | 33.4 |
| O=C(OC[C@H]1O[C@@H](OC(=O)c2cc(O)c(O)c(OC(=O)c3cc(O)c(O)c(O)c3)c2)[C@H](OC(=O)c2cc(O)c(O)c(OC(=O)c3cc(O)c(O)c(O)c3)c2)[C@@H](OC(=O)c2cc(O)c(O)c(OC(=O)c3cc(O)c(O)c(O)c3)c2)[C@@H]1OC(=O)c1cc(O)c(O)c(OC(=O)c2cc(O)c(O)c(O)c2)c1)c1cc(O)c(O)c(OC(=O)c2cc(O)c(O)c(O)c2)c1 | IU/L | 44.4 |

Below: the item to evaluate.
Consider the compound `COC(=O)C1=C(C)NC(C)=C(C(=O)OC)C1c1ccccc1[N+](=O)[O-]` . State its measured ALT.
43.8

----------
Species: Rattus norvegicus
Test: Open TG-GATES - Regimen: Single
Assay type: toxicity, organism-based, Sprague-Dawley
Set-up: regimen Single, gender Male, age 6 weeks
Settings: in vivo, po, 0 mg/kg, 6 h, tissue Liver, route gavage, dose level Control
QUANTITY_KIND: LIVER (g)
Expressed in g, but write only the number.

These recorded examples may help you get a feel for the data.
| COMPOUND | LIVER / g |
| --- | --- |
| CCOc1ccc(NC(C)=O)cc1 [PHENACETIN] | 8.7 |
| Cc1nnc2n1-c1ccc(Cl)cc1C(c1ccccc1Cl)=NC2 [TRIAZOLAM] | 7.7 |
| CCCc1cc(=O)[nH]c(=S)[nH]1 [PROPYLTHIOURACIL] | 7.9 |
| CN/C(=N/CCSCc1nc[nH]c1C)NC#N [CIMETIDINE] | 9.5 |
| Brc1ccccc1 [BROMOBENZENE] | 7.6 |

Below: the item to evaluate.
Consider the compound NC1=NC(=O)C(c2ccccc2)O1 (stereo unspecified) [PEMOLINE] . State its measured LIVER.
8.8

----------
Organism: Rattus norvegicus
Assay: Open TG-GATES - Regimen: Daily Repeat
Format: toxicity, organism-based, Sprague-Dawley
Set-up: regimen Daily Repeat, gender Male, age 6 weeks
Details: in vivo, po, 0 mg/kg, […], tissue Blood, route gavage, dose level Control, time 14 day
QUANTITY_KIND: Eos (%)
Expressed in %, but write only the number.

| COMPOUND | MEASUREMENT_UNITS | TEST_VALUE |
| --- | --- | --- |
| Cc1nnc2n1-c1ccc(Cl)cc1C(c1ccccc1Cl)=NC2 | % | 1 |
| CN(C)CCC(c1ccc(Cl)cc1)c1ccccn1 (stereo unspecified) | % | 1 |
| CN1C(=O)CCS(=O)(=O)C1c1ccc(Cl)cc1 (stereo unspecified) | % | 1 |

Consider the compound `Nc1c2c(nc3ccccc13)CCCC2` . State its measured Eos.
0.8

Consider the compound `Brc1ccccc1` . State its measured Eos.
0.8

Consider the compound `CCOc1ccc(NC(C)=O)cc1` . State its measured Eos.
1.4

----------
Examples of compounds with documented ALT follow.
Species on record: Rattus norvegicus
Assay: Open TG-GATES - Regimen: Single
Format: toxicity, organism-based, Sprague-Dawley
Parameters: regimen Single, gender Male, age 6 weeks
Settings: in vivo, po, 0 mg/kg, 3 h, tissue Plasma, route gavage, dose level Control
Expressed in IU/L, but write only the number.

These recorded examples may help you get a feel for the data.
| COMPOUND | TEST_VALUE |
| --- | --- |
| Cc1nnc2n1-c1ccc(Cl)cc1C(c1ccccc1Cl)=NC2 | 39.8 |
| CN1C(=O)CCS(=O)(=O)C1c1ccc(Cl)cc1 (configuration not stated) | 43.6 |
| CNC(=C[N+](=O)[O-])NCCSCc1ccc(CN(C)C)o1 | 36.4 |
| CN(C)CCC(c1ccc(Cl)cc1)c1ccccn1 (configuration not stated) | 46 |
| COC(=O)C1=C(C)NC(C)=C(C(=O)OC)C1c1ccccc1[N+](=O)[O-] | 49.6 |

Consider the compound NC1=NC(=O)C(c2ccccc2)O1 (configuration not stated) . State its measured ALT.
44.8

Consider the compound `O=C(OC[C@H]1O[C@@H](OC(=O)c2cc(O)c(O)c(OC(=O)c3cc(O)c(O)c(O)c3)c2)[C@H](OC(=O)c2cc(O)c(O)c(OC(=O)c3cc(O)c(O)c(O)c3)c2)[C@@H](OC(=O)c2cc(O)c(O)c(OC(=O)c3cc(O)c(O)c(O)c3)c2)[C@@H]1OC(=O)c1cc(O)c(O)c(OC(=O)c2cc(O)c(O)c(O)c2)c1)c1cc(O)c(O)c(OC(=O)c2cc(O)c(O)c(O)c2)c1` . State its measured ALT.
34.4

----------
Examples of compounds with documented LIVER follow.
Species on record: Rattus norvegicus
Assay: Open TG-GATES - Regimen: Daily Repeat
Assay type: toxicity, organism-based, Sprague-Dawley
Parameters: regimen Daily Repeat, gender Male, age 6 weeks
Conditions: in vivo, po, 300 mg/kg, 72 h, tissue Liver, route gavage, dose level Middle, time 3 day
Expressed in g, but write only the number.

These recorded examples may help you get a feel for the data.
| MOLECULE | QUANTITY_KIND | TEST_VALUE |
| --- | --- | --- |
| Cc1nnc2n1-c1ccc(Cl)cc1C(c1ccccc1Cl)=NC2 | LIVER | 10.9 |
| O=C(OC[C@H]1O[C@@H](OC(=O)c2cc(O)c(O)c(OC(=O)c3cc(O)c(O)c(O)c3)c2)[C@H](OC(=O)c2cc(O)c(O)c(OC(=O)c3cc(O)c(O)c(O)c3)c2)[C@@H](OC(=O)c2cc(O)c(O)c(OC(=O)c3cc(O)c(O)c(O)c3)c2)[C@@H]1OC(=O)c1cc(O)c(O)c(OC(=O)c2cc(O)c(O)c(O)c2)c1)c1cc(O)c(O)c(OC(=O)c2cc(O)c(O)c(O)c2)c1 | LIVER | 10.9 |
| CNC(=C[N+](=O)[O-])NCCSCc1ccc(CN(C)C)o1 | LIVER | 11.1 |
| CN/C(=N/CCSCc1nc[nH]c1C)NC#N | LIVER | 11.4 |
| COC(=O)C1=C(C)NC(C)=C(C(=O)OC)C1c1ccccc1[N+](=O)[O-] | LIVER | 11.7 |

Consider the compound `CCOc1ccc(NC(C)=O)cc1` . State its measured LIVER.
11.1
